These entries and their values trace back to patent US20100249402A1.

System: calvaria
Test: Cytotoxicity test (MTT), calvaria
Format: cell-based
Conditions: 10^−6 M, cultured for 72 hrs, in comparison with the control group
RECORDED METRIC: Cell survival rate (%)

>>> val("CNc1nc(-c2ccc(OCCCCCOc3ccc(C(=N)NO)cc3)cc2)c(N2CCOCC2)s1")
95.8
>>> val("CC(C)NCc1sc(N(C)CCN2CCOCC2)nc1-c1ccc(OCCCCCOc2ccc(C(=N)NO)cc2)cc1")
98
>>> val("CN1CCN(c2sc(N3CCOCC3)nc2-c2ccc(OCCCCCOc3ccc(C(=N)NO)cc3)cc2)CC1")
93
>>> val("CN(CCN1CCOCC1)c1nc(-c2ccc(OCCCCCOc3ccc(C(=N)NO)cc3)cc2)c(CN2CCSCC2)s1")
99
>>> val("Cc1nc(-c2ccc(OCCCCCOc3ccc(C(=N)NO)cc3)cc2)c(CNCCCn2ccnc2)s1")
94
>>> val("CCCCNCc1sc(C)nc1-c1ccc(OCCCCCOc2ccc(C(=N)NO)cc2)cc1")
96
>>> val("CNc1nc(-c2ccc(OCCCCCOc3ccc(C(=N)NO)cc3)cc2)c(CN2CCOCC2)s1")
90
>>> val("CN(CCO)c1nc(-c2ccc(OCCCCCOc3ccc(C(=N)NO)cc3)cc2)c(CN2CCOCC2)s1")
86
>>> val("N=C(NO)c1ccc(OCCCCCOc2ccc(-c3nc(N4CCCCC4)sc3N3CCOCC3)cc2)cc1")
97
>>> val("CN(Cc1ccccc1)c1nc(-c2ccc(OCCCCCOc3ccc(C(=N)NO)cc3)cc2)c(CN2CCOCC2)s1")
106
>>> val("CN(Cc1ccncc1)c1nc(-c2ccc(OCCCCCOc3ccc(C(=N)NO)cc3)cc2)c(CN2CCOCC2)s1")
95
>>> val("Cc1nc(-c2ccc(OCCCCCOc3ccc(C(=N)NO)cc3)cc2)c(CN2CCN(C)CC2)s1")
92.3
>>> val("COCCN(CCOC)Cc1sc(N(C)CCN2CCOCC2)nc1-c1ccc(OCCCCCOc2ccc(C(=N)NO)cc2)cc1")
103
>>> val("Cc1nc(-c2ccc(OCCCCCOc3ccc(C(=N)NO)cc3)cc2)c(NC(=O)c2ccncc2)s1")
94.6
>>> val("Cc1nc(-c2ccc(OCCCCCOc3ccc(C(=N)NO)cc3)cc2)c(CN2CCCCC2)s1")
95.8
>>> val("Cc1nc(-c2ccc(OCCCCCOc3ccc(C(=N)NO)cc3)cc2)c(CN2CCCC2)s1")
97
>>> val("Cc1nc(-c2ccc(OCCCCCOc3ccc(C(=N)NO)cc3)cc2)c(N2CCOCC2)s1")
91.5
>>> val("Cc1nc(-c2ccc(OCCCCCOc3ccc(C(=N)NO)cc3)cc2)c(N(C)C)s1")
93
>>> val("Cc1nc(-c2ccc(OCCCCCOc3ccc(C(=N)NO)cc3)cc2)c(NC(=O)c2cccnc2)s1")
86.3
>>> val("CN(CCN1CCOCC1)c1nc(-c2ccc(OCCCCCOc3ccc(C(=N)NO)cc3)cc2)c(CN2CCOCC2)s1")
104
>>> val("CCN(C)c1nc(-c2ccc(OCCCCCOc3ccc(C(=N)NO)cc3)cc2)c(CN2CCOCC2)s1")
107
>>> val("Cc1nc(-c2ccc(OCCCCCOc3ccc(C(=N)NO)cc3)cc2)c(CN2CCOCC2)s1")
90.7
>>> val("Cc1nc(-c2ccc(OCCCCCOc3ccc(C(=N)NO)cc3)cc2)c(N)s1")
95
>>> val("Cc1nc(-c2ccc(OCCCCCOc3ccc(C(=N)NO)cc3)cc2)c(N2CCN(C)CC2)s1")
87.9
>>> val("N=C(NO)c1ccc(OCCCCCOc2ccc(-c3nc(N4CCOCC4)sc3N3CCOCC3)cc2)cc1")
98
>>> val("N=C(NO)c1ccc(OCCCCCOc2ccc(-c3nc(N4CCOCC4)sc3CN3CCOCC3)cc2)cc1")
102
>>> val("CNc1sc(C)nc1-c1ccc(OCCCCCOc2ccc(C(=N)NO)cc2)cc1")
92.5
>>> val("N=C(NO)c1ccc(OCCCCCOc2ccc(-c3nc(-c4ccccc4)sc3N)cc2)cc1")
83
>>> val("CCCNCc1sc(C)nc1-c1ccc(OCCCCCOc2ccc(C(=N)NO)cc2)cc1")
95
>>> val("N=C(NO)c1ccc(OCCCCCOc2ccc(-c3nc(-c4cccnc4)sc3N)cc2)cc1")
99
>>> val("Cc1nc(-c2ccc(OCCCCCOc3ccc(C(=N)NO)cc3)cc2)c(CN(C)C)s1")
95.6
>>> val("N=C(NO)c1ccc(OCCCCCOc2ccc(-c3nc(N)sc3N3CCOCC3)cc2)cc1")
97.7
